- assay comment: Tissue distribution of TET after a single i.t. administration in normal and LPS-treated mice
- details: BALB/c, mouse, blood, inhaled or intranasal, 15 mg/kg, t1/2, normal mice; 15 mg/kg i.t.
observed property: half-life (h)

1) COc1ccc2cc1Oc1ccc(cc1)C[C@H]1c3cc(c(OC)cc3CCN1C)Oc1c(OC)c(OC)cc3c1[C@H](C2)N(C)CC3 = 83.2

----------
- assay comment: Tissue distribution of TET after a single i.t. administration in normal and LPS-treated mice
- details: BALB/c, mouse, lung, inhaled or intranasal, 15 mg/kg, Cmax, normal mice; 15 mg/kg i.t.
observed property: Cmax (µg/mL)

1. COc1ccc2cc1Oc1ccc(cc1)C[C@H]1c3cc(c(OC)cc3CCN1C)Oc1c(OC)c(OC)cc3c1[C@H](C2)N(C)CC3 = 60.3
